Source listed as patent US4459290A.

- Test system: Mycoplasma gallisepticum
- assay_text: MIC, broth-dilution microtiter test (Table VII)
- Assay type: cell-based
- experimental_conditions: Mycoplasmoides gallisepticum; M. gallisepticum; broth-dilution microtiter; read-out: MIC
Please respond with reported MIC for every item in the list.
Provide only the numeric value, understood in µg/mL.

Query string: Quick check: MIC on Mycoplasma gallisepticum, item CCC1OC(=O)CC(O)C(C)C(OC2OC(C)C(O)C(N(C)C)C2O)C(CC=O)CC(C)C(=O)C=CC(C)=CC1CF (stereo not shown) ?
Result string: 0.09

Query string: Check CCC1OC(=O)CC(O)C(C)C(OC2OC(C)C(O)C(N(C)C)C2OC(C)=O)C(CC=O)CC(C)C(=O)C=CC(C)=CC1C[n+]1ccccc1 (stereo not shown) too.
Result string: 25

Query string: Check CCC1OC(=O)CC(O)C(C)C(OC2OC(C)C(O)C(N(C)C)C2O)C(CC=O)CC(C)C(=O)C=CC(C)=CC1CSc1ccccc1 (stereo not shown) too.
Result string: 0.09

Query string: Check CCC1OC(=O)CC(O)C(C)C(OC2OC(C)C(O)C(N(C)C)C2O)C(CC=O)CC(C)C(=O)C=CC(C)=CC1CSc1nnc(C)s1 (stereo not shown) too.
Result string: 0.19
